Each entry below carries its reported Population Normal (%).
Tested on: HEK-293T
Experiment Notes: Multiplex assay against HEK293T
Assay type: toxicity, cell-based
Condition Details: human, 24 h, 10 µM, compound concentration 10 uM, replicate 2
Outcome Measure: Population Normal (%)

[[record]]
compound = "O=c1cc(N2CCOCC2)oc2c(-c3cccc4c3sc3ccccc34)cccc12"
system = "HEK-293T"
recorded_number = 97

[[record]]
compound = "Cc1c[nH]c2nccc(Oc3c(F)cc(Nc4cc(Cl)nc(N)n4)cc3F)c12 [BAY-549]"
system = "HEK-293T"
recorded_number = 97

[[record]]
compound = "CNC(=O)c1ccc(Nc2ncc(C(F)(F)F)c(NCc3nccnc3N(C)S(C)(=O)=O)n2)cc1 [DEFACTINIB]"
system = "HEK-293T"
recorded_number = 96

[[record]]
compound = "O=C(c1cc2c(cc1F)OC(c1ccc(F)cc1)(c1ccc(Cl)cc1Cl)O2)N1CCOCC1 (centres undefined)"
system = "HEK-293T"
recorded_number = 92

